system.name: EGFR wild type (Homo sapiens)
Construct: purchased Carna Bio
Sequence (P00533 25-1210): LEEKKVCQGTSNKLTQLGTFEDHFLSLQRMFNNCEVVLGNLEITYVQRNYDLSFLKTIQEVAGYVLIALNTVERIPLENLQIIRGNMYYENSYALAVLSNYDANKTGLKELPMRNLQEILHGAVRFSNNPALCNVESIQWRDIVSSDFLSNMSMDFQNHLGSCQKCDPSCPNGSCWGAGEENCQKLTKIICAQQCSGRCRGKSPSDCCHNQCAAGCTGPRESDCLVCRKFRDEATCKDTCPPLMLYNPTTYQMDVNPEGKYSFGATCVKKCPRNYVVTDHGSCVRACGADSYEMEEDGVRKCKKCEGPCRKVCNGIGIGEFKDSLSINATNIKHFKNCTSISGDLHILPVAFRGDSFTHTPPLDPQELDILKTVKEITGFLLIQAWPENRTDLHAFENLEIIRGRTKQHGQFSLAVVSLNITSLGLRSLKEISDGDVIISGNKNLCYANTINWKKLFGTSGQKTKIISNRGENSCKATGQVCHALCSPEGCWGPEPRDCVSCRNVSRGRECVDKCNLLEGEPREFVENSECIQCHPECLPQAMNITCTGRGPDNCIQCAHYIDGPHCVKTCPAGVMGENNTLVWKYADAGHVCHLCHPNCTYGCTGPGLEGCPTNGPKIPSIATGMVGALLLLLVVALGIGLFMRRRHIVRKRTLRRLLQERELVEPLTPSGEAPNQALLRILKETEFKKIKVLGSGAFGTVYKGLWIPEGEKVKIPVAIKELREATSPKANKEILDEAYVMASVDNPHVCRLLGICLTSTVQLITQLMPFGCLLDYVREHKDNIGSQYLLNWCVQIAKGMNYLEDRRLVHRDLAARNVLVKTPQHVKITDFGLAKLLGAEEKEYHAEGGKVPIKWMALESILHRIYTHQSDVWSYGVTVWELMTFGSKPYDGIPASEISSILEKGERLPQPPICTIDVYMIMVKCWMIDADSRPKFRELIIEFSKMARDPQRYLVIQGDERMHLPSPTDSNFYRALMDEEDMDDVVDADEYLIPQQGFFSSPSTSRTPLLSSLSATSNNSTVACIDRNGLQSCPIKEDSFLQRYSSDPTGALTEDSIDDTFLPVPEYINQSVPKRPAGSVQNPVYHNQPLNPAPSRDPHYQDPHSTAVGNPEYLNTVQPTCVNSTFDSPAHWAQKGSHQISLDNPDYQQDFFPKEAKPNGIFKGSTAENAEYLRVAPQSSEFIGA
test.method.notes: Inhibition of EGFR wild type biochemical enzymatic activity (HTRF)
condition.context: EGFR WT, 1 mM ATP, 1 h, room temperature, read-out: IC50 (nM) @WT
metric.name: IC50

Cn1ncc2c1OCCN(C1COC1)CCn1c(nc3ccccc31)NC(=O)c1cc-2c(=O)n(C)c1 : > 5000 nM
C[C@@H]1CCCOc2c(cnn2C)-c2cc(cn(C)c2=O)C(=O)Nc2nc3ccc(N4CCN(CC(F)(F)F)CC4)cc3n2C1 : > 5000 nM
CN(C)C1CCN(c2ccc3nc4n(c3c2)C23CCC(CN(CCOc5c(cnn5C)-c5cc(cn(C)c5=O)C(=O)N4)C2)C3)CC1(F)F (single isomer, unassigned) [Example A97B] : 224 nM
Cn1ncc2c1OCCN1CC3CCC(CC3)(C1)n1c(nc3ccccc31)NC(=O)c1cc-2c(=O)n(C)c1 : > 5000 nM
CN(C)[C@H]1CCN(c2ccc3nc4n(c3c2)C23CCC(CC2)CN(CCOc2c(cnn2C)-c2cc(cn(C)c2=O)C(=O)N4)C3)C1 : > 5000 nM

Turning now to a further record.
Check the records and state IC50 for `C[C@@H]1CCCOc2c(cnn2C)-c2cc(cn(C)c2=O)C(=O)Nc2nc3ccc(N4CCN(C)CC4)c(Cl)c3n2C1`
> 5000 nM

====

system.name: EGFR Exon19Del (Homo sapiens, UniProt P00533, DEL746-750)
Construct: purchased Carna Bio
Sequence (P00533 with tags, fused parts or gaps DEL746-750 limits assumed): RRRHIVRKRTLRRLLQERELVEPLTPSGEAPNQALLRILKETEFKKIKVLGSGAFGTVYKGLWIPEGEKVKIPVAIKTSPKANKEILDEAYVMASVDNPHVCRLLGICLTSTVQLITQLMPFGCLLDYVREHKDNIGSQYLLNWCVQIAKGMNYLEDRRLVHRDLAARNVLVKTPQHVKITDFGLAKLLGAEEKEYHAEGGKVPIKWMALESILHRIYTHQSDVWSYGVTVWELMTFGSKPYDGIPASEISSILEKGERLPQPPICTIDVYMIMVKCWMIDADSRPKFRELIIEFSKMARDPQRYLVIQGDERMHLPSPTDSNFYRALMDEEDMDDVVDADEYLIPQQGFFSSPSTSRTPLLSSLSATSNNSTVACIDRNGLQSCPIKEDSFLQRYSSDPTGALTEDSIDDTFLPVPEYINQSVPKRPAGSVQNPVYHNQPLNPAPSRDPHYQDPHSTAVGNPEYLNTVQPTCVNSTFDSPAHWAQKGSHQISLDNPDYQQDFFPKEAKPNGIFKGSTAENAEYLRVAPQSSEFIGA
test.method.notes: Inhibition of EGFR Exon19Del biochemical enzymatic activity (HTRF)
condition.context: EGFR Exon19Del, 1 mM ATP, 1 h at room temperature, read-out: IC50 @Del19
metric.name: IC50 (nM)
Form entry: value (nM) — number only.

Check the records and state IC50 for Cc1cc2cc(n1)-c1cnn(C)c1OCCN1CC3CCC(CC3)(C1)n1c(nc3ccc(N4CCC5(CN(C)C5)C4)cc31)NC2=O [Example B37]
19

Answer with the recorded IC50 for the compound listed here: Cc1cc2cc(n1)-c1cnn(C)c1OCCN1CC3CCC(CC3)(C1)n1c(nc3ccc(N4CC5CCN(C)C5C4)cc31)NC2=O (stereo not shown) [Example B35]
30

Input Cc1cc2cc(n1)-c1cnn(C)c1OCCN1CC3CCC(C3)(C1)n1c(nc3ccc(N(C)CCN(C)C)cc31)NC2=O (single isomer, unassigned) [Example B47A] , output reported IC50.
4170

Entry Cc1cc2cc(n1)-c1cnn(C)c1OCCN1CC3CCC(CC3)(C1)n1c(nc3ccc(N4CC[C@@H](N(C)C)C4)cc31)NC2=O [Example B29] needs its IC50 filled in; supply it.
45

====

system.name: EGFR L858R (Homo sapiens, UniProt P00533, L858R)
Construct: purchased Carna Bio
Sequence (P00533 25-1210 L858R): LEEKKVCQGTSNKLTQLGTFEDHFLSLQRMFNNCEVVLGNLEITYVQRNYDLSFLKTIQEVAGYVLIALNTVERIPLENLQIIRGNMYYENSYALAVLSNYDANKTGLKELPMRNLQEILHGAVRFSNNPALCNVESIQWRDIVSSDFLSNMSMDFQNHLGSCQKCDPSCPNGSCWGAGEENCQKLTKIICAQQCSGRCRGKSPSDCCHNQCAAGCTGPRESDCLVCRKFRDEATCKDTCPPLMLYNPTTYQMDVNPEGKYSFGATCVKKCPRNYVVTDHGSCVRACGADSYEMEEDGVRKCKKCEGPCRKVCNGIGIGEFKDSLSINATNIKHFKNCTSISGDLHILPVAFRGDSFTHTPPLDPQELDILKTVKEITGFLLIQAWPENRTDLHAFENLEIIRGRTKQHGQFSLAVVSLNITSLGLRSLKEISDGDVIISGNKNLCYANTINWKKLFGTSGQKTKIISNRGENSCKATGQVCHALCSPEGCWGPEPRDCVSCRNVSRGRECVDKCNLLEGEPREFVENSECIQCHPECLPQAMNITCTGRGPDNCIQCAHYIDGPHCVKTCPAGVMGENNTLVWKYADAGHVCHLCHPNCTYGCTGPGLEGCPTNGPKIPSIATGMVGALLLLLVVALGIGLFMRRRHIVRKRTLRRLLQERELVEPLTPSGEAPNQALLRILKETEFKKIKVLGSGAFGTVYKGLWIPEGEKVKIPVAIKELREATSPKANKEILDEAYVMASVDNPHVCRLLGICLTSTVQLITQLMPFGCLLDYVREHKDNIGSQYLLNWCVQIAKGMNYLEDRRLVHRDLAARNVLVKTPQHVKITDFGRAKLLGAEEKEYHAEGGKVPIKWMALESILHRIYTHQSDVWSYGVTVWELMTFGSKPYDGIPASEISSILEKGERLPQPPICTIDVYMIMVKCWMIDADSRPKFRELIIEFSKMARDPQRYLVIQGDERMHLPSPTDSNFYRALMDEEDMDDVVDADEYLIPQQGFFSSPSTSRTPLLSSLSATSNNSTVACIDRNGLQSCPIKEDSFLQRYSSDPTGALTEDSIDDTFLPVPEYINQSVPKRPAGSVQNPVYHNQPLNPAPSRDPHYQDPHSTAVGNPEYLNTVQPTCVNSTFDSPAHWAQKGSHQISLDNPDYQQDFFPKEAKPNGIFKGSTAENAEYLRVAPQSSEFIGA
test.method.notes: Inhibition of EGFR L858R biochemical enzymatic activity (HTRF)
condition.context: 1 mM ATP, 1 h at room temperature, read-out: IC50 @L858R
metric.name: log10 IC50 (log10 of the value in nM)
Response schema: value (number) is log10 of IC50 in units of nM.

These solved cases illustrate the format of a correct answer.
Cc1cc2cc(n1)-c1cnn(C)c1OCCN1CC3CCC(C3)(C1)n1c(nc3ccc(N4CCN(C)CC4)cc31)NC2=O (centres unmarked) [Example B9B] : 0.87
Cc1cc2cc(n1)-c1cnn(C)c1OCCN1CC3CCC(C3)(C1)n1c(nc3ccc(N4CCC(N5CCOCC5)C4)cc31)NC2=O (single isomer, unassigned) [Example B44B1] : 2.53
Cc1cc2cc(n1)-c1cnn(C)c1OCCN1CC3CCC(CC3)(C1)n1c(nc3ccc(N4CCC5(CCN(C)CC5)C4)cc31)NC2=O [Example B31] : 2.39
Cc1cc2cc(n1)-c1cnn(C)c1OCCN1CC3CCC(CC3)(C1)n1c(nc3ccc(N4CC5CN(C)CC5C4)cc31)NC2=O (centres unmarked) : 2.62
Cc1cc2cc(n1)-c1cnn(C)c1OCCN1CC3CCC(C3)(C1)n1c(nc3ccc(N4CCN(C5CC5)CC4)cc31)NC2=O (single isomer, unassigned) [Example B55B] : 1.81
Cc1cc2cc(n1)-c1cnn(C)c1OCCN1CC3CCC(C3)(C1)n1c(nc3ccc(N4CCN(C5COC5)CC4)cc31)NC2=O (single isomer, unassigned) [Example B58B] : 2.13

// below: log10 IC50 requested for another molecule
Provide the reported log10 IC50 (system: EGFR L858R (Homo sapiens, UniProt P00533, L858R)) for `Cc1cc2cc(n1)-c1cnn(C)c1OCCN1CC3CCC(CC3)(C1)n1c(nc3ccc(N4CC[C@H](N(C)C)C4)cc31)NC2=O`
2.51

====

system.name: EGFR wild type (Homo sapiens)
Construct: purchased Carna Bio
test.method.notes: Inhibition of EGFR wild type biochemical enzymatic activity (HTRF)
condition.context: EGFR WT, 1 mM ATP, 1 h, room temperature, read-out: IC50 (nM) @WT
Let's look at some molecules and their measured IC50.
Response body: numeric value in nM, unit text excluded.

Give me measured IC50, please, for this molecule: CN1CC2(C1)CN(c1ccc3nc4n(c3c1)C13CCC(CN(CCOc5c(cnn5C)-c5cc(cn(C)c5=O)C(=O)N4)C1)C3)C2 (single isomer, unassigned) [Example A92B]
16

Entry CCn1ncc2c1OCCC[C@@H](C)Cn1c(nc3ccc(N4CCN(C)CC4)cc31)NC(=O)c1cc-2c(=O)n(C)c1 [Example A21] needs its IC50 filled in; supply it.
446

State its IC50 for this molecule: Cn1ncc2c1OCCN(CC(F)(F)F)CCn1c(nc3ccccc31)NC(=O)c1cc-2c(=O)n(C)c1 [Example A1]
3550

Given Cn1ncc2c1OCCN1CC3CCC(C3)(C1)n1c(nc3ccc(N4CCOCC4)cc31)NC(=O)c1cc-2c(=O)n(C)c1 (stereo not drawn) [Example A62] , respond with its IC50.
2040

Look up and report measured IC50 for this entry: COCCN(C)c1ccc2nc3n(c2c1)C12CCC(CN(CCOc4c(cnn4C)-c4cc(cn(C)c4=O)C(=O)N3)C1)C2 (single isomer, unassigned) [Example A90B]
825

Consider the molecule C[C@@H]1CCCOc2c(cnn2C)-c2cc(cn(C)c2=O)C(=O)Nc2nc3ccc(N4CC(N5CCN(C)CC5)C4)cc3n2C1 [Example A46] . State its measured IC50.
104

====

system.name: EGFR[T790M/C797S/L858R] (Homo sapiens, UniProt P00533, C797S/L858R/T790M)
Construct: purchased Carna Bio
Sequence (P00533 25-1210 T790M/C797S/L858R): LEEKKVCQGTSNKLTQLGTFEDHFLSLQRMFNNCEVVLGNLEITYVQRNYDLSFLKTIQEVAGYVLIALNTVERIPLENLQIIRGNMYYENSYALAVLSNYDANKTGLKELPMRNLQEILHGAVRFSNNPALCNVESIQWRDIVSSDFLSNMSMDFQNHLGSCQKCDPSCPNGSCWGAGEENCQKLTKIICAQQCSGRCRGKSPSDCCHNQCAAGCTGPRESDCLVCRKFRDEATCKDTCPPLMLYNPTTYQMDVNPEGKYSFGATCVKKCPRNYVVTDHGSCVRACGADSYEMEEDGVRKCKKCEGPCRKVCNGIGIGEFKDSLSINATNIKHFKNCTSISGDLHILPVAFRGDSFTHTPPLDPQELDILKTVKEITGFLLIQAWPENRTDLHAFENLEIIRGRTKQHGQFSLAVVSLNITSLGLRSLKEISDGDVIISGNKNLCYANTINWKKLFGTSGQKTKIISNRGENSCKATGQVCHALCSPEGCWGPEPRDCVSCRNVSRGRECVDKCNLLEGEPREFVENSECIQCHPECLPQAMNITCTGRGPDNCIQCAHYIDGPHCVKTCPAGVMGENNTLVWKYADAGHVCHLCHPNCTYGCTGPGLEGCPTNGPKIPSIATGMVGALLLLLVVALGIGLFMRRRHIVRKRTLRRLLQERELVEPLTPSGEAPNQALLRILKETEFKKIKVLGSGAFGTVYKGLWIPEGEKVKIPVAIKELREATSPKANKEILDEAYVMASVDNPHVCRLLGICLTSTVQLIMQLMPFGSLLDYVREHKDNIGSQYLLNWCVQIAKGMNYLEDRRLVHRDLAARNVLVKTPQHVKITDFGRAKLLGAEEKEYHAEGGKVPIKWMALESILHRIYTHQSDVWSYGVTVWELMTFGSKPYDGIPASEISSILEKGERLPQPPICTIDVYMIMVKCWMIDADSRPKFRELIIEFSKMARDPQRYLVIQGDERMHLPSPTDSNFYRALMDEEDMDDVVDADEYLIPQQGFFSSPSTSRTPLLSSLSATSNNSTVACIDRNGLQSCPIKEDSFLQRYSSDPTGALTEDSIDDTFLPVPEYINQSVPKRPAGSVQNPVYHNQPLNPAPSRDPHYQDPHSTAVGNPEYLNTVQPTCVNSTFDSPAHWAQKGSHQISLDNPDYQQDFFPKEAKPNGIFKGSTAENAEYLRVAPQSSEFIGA
test.method.notes: Inhibition of EGFR[T790M/C797S/L858R] biochemical enzymatic activity (HTRF)
condition.context: EGFR[T790M/C797S/L858R], 1 mM ATP, 1 h at room temperature, read-out: IC50 @T790M- C797S - L858R
pIC50: −log10 of the molar value.
Property: pIC50; scope: individual compounds

Example compounds with recorded pIC50:
Cc1cc2cc(n1)-c1cnn(C)c1OCCN1CC3CCC(C3)(C1)n1c(nc3ccc(N4CCN(C5CC5)CC4)cc31)NC2=O (single isomer, unassigned) [Example B55A] : < 5.30
Cc1cc2cc(n1)-c1cnn(C)c1OCCN1CC3CCC(C3)(C1)n1c(nc3ccc(N4CC(N5CCOCC5)C4)cc31)NC2=O (single isomer, unassigned) [Example B48A] : < 5.30

Give pIC50 for the following compound: Cc1cc2cc(n1)-c1cnn(C)c1OCCN1CC3CCC(C3)(C1)n1c(nc3ccc(N4CCOCC4)cc31)NC2=O (single isomer, unassigned) [Example B10A]
8.59

====

system.name: EGFR Exon19Del (Homo sapiens, UniProt P00533, DEL746-750)
Construct: purchased Carna Bio
test.method.notes: Inhibition of EGFR Exon19Del biochemical enzymatic activity (HTRF)
condition.context: EGFR Del19, 1 mM ATP, 1 h, room temperature, read-out: IC50 @Del19
Item-by-item account of pIC50
The scale used: pIC50 is minus the common logarithm of the concentration in molar units.

Supply reported pIC50 belonging to this compound: `CN1CCN(c2ccc3nc4n(c3c2)C(C)(C)CCCCOc2c(cnn2C)-c2cc(cn(C)c2=O)C(=O)N4)CC1`
8.07

Supply measured pIC50 of CN(C)C1CN(c2ccc3nc4n(c3c2)C23CCC(CN(CCOc5c(cnn5C)-c5cc(cn(C)c5=O)C(=O)N4)C2)C3)CC1(F)F (single isomer, unassigned) [Example A99B] in your reply.
8.46

Consider the compound CN(C)C1CN(c2ccc3nc4n(c3c2)C23CCC(CN(CCOc5c(cnn5C)-c5cc(cn(C)c5=O)C(=O)N4)C2)C3)CC1F (single isomer, unassigned) [Example A84C] . State its measured pIC50.
8.59

====

system.name: EGFR (C797S L858R) (Homo sapiens, UniProt P00533, C797S/L858R)
Construct: purchased signalchem
test.method.notes: Inhibition of EGFR (C797S L858R) biochemical enzymatic activity (HTRF)
condition.context: EGFR L858-C797S, 1 mM ATP, 1 h, room temperature, read-out: IC50 (nM) @L858-C797S
Listing of entries alongside the reported IC50.
Write down the numeric answer in nM and omit the unit.

Give the reported value of IC50 for this record: CN1CCC2(CCN(c3ccc4nc5n(c4c3)C34CCC(CN(CCOc6c(cnn6C)-c6cc(cn(C)c6=O)C(=O)N5)C3)C4)CC2)C1 (single isomer, unassigned) [Example A82A]
2140

Return IC50 for the following compound: Cn1ncc2c1OCCN1CC3CCC(C3)(C1)n1c(nc3cc(F)ccc31)NC(=O)c1cc-2c(=O)n(C)c1 (stereo not shown) [Example A117B]
23
